assay: NCI Yeast Anticancer Drug Screen. Data for the sgs1 mgt1 strain (AID 161);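 also: 0% = growth of cultures given vehicle only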; conditions: S. cerevisiae sgs1 mgt1 strain, active compounds read high; at 50.0 µM unless noted
About 79,000 compounds went through this panel and 15% of them were active in at least one assay; those are over-represented in the sample as a whole. Active and inactive are the calls of the source. Rule as the data show it: active = growth inhibition above about 70%; inactive = the rest. Where a SMILES comes first, the peptide text is derived from it. [ ]: non-standard residue; d: D form. The star is where a group is joined. ξ: configuration not given here. ξF = NC(Cc1ccccc1)C(=O)O; Cbz = O=C(OCc1ccccc1)*; Aib = CC(C)(N)C(=O)O
Outcome measure: growth inhibition

Compound: c1ccc2c3c([nH]c2c1)CCCC3
Result value: -10.2% (inactive)
--
Compound: CC(C)(CO)N=Cc1ccccc1O
Result value: -14.2% (inactive)
--
Compound: CC(C)(C)c1cc2c(O)c3cccc4c(=O)c5cccc6c5-c(c34)c2c(c1)c6=O
Result value: -26.8% (inactive)
--
Compound: C1CSCCSCCS1
Result value: 20.1% (inactive)
--
Compound: CC(NCCN1CCOCC1)c1ccc2ccccc2c1 (centres undefined)
Result value: 41.5% (inactive)
--
Compound: COc1ccc(NS(=O)(=O)c2ccc(NC(CNC(C)S(=O)(=O)O)S(=O)(=O)O)cc2)cc1 (centres undefined)
Result value: 29.3% (inactive)
--
Compound: CSC1N=CNc2c1sc(=S)n2-c1ccccc1 (centres undefined)
Result value: 15.9% (inactive)
--
Compound: C/C(=N\NC(N)=O)c1ccc(Br)c2ccccc12
Result value: -3.35% (inactive)
--
Compound: COC(=O)C(C)(C)NC(=O)C(Cc1ccccc1)NC(=O)C(C)(C)NC(=O)OCc1ccccc1 (centres undefined) (Cbz-[Aib]-[ξF]-[Aib]-OMe)
Result value: -6.2% (inactive)
--
Compound: COc1ccc(/C(C)=N/N=C\c2cc(OC)c(OC)c(OC)c2)cc1
Result value: -10.8% (inactive)
--
Compound: CCCCCOC(=O)c1ccc(C(C)C)cc1
Result value: 5.15% (inactive)
--
Compound: Oc1cccc2c1CCCC2
Result value: -37% (inactive)
--
Compound: O=C(CCN1C(=O)c2ccccc2C1=O)Nc1c(I)cc(I)c(C(=O)O)c1I
Result value: -20.6% (inactive)
--
Compound: CC(C)NC(=O)c1ccc(Cl)cc1Cl
Result value: 15.6% (inactive)
--
Compound: CN1C(=O)/C(=C2\SC(=O)N(CN3CCOCC3)C2=O)c2ccccc21
Result value: -40% (inactive)
--
Compound: N#CCCOc1ccc(N)cc1
Result value: 7.15% (inactive)
--
Compound: C[C@]12CCC(=O)C=C1CC[C@@H]1[C@@H]2C(=O)C[C@]2(C)/C(=C\C(=O)O)CC[C@@H]12
Result value: 5.7% (inactive)
--
Compound: C#CCN(N=O)C(=O)NCCCCC(NC(C)=O)C(=O)NCc1ccccc1 (centres undefined)
Result value: -16.9% (inactive)
--
Compound: O=S1(=O)CCC12CC1c3ccccc3C2c2ccccc21 (centres undefined)
Result value: -11.6% (inactive)
--
Compound: C=C[C@@]1(C)C=C2CC[C@@H]3[C@](C)(CCC[C@@]3(C)C(=O)O)[C@H]2CC1
Result value: 31.3% (inactive)
--
Compound: Cc1c2noc1CCCCCCCCCCC2
Result value: 3.6% (inactive)
--
Compound: O=C(O)c1cc(C(=O)C(=O)c2cc(C(=O)O)c(O)c3ccccc23)c2ccccc2c1O
Result value: -7.15% (inactive)
--
Compound: CCCCCCCCSC(=N)N
Result value: 1.95% (inactive)
--
Compound: CCOC(=O)CC(C#N)(C#N)CC(=O)OCC
Result value: 5.85% (inactive)
